# credit: ChEMBL document CHEMBL3286253

# test-details: Chemical stability of solid state of the compound assessed as compound remaining after 24 hrs by UV/HPLC analysis
# Assay type: physicochemical
# reported-conditions: read-out: Stability
property: remaining at 24 h

Which remaining at 24 h is listed for `C=C[C@]1(C)C[C@@H](OC(=O)CSc2cncc(COP(=O)([O-])[O-])c2)[C@]2(C)[C@H](C)CC[C@]3(CCC(=O)[C@H]32)[C@@H](C)[C@@H]1O.[Na+].[Na+]` ?
98.1%

###

# test-details: Chemical stability of aqueous solution state of the compound assessed as compound remaining after 14 days by UV/HPLC analysis
# Assay type: physicochemical
# reported-conditions: read-out: Stability
property: remaining at 336 h (%)
Give bare numbers, in %.

Which remaining at 336 h is listed for `C=C[C@]1(C)C[C@@H](OC(=O)CSc2cncc(COP(=O)([O-])[O-])c2)[C@]2(C)[C@H](C)CC[C@]3(CCC(=O)[C@H]32)[C@@H](C)[C@@H]1O.[Na+].[Na+]` ?
98.1
